Values were extracted from patent US9828339B2.

- Target or system: human muscarinic M3 receptor (Homo sapiens (Human), UniProt P20309)
- Sequence (P20309 whole entry): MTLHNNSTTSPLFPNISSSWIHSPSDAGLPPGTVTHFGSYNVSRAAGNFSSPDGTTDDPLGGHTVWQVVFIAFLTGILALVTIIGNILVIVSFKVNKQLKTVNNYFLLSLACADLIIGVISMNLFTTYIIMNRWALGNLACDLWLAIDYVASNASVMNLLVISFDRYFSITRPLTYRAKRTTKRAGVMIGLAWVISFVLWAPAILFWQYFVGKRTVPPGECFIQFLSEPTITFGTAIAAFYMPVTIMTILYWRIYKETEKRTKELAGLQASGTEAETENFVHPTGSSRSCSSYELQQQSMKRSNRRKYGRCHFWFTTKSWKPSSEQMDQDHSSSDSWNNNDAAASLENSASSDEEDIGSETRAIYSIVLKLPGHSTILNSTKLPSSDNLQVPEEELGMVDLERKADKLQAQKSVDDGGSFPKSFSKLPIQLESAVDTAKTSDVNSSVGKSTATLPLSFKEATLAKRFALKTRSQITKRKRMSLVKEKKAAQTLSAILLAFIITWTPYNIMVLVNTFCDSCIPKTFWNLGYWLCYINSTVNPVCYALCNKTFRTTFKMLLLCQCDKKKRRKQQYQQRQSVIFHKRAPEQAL
- Assay procedure: Antagonism assay on human muscarinic M3 receptor (carbachol-induced intracellular calcium, FLIPR Calcium 5, transfected Cos-7 cells)
- Assay type: cell-based
- Measurement parameters: functional inhibitory constant; carbachol-induced intracellular calcium in Cos-7 cells transfected with human M3 receptor
pKi: −log10 of the molar value.
Given measured pKi, output 1 if it is greater than or equal to 9 and -1 if not.

[
  {
    "Compound": "CC(C)N1CC[C@@H](COC(=O)Nc2ccccc2-c2ccc(F)c(Cl)c2)C1 [Example 151]",
    "Cat": -1
  },
  {
    "Compound": "CN1CC[C@H](COC(=O)Nc2ccc(F)cc2-c2cc(F)cc(Cl)c2)C1 [Example 129]",
    "Cat": -1
  },
  {
    "Compound": "CN1CC[C@@H](COC(=O)Nc2ccc(F)cc2-c2ccc(F)cc2)C1 [Example 141]",
    "Cat": 1
  },
  {
    "Compound": "CN1CCCC1CCOC(=O)Nc1ccc(Cl)cc1-c1cccc(F)c1 (centres unmarked) [Example 67]",
    "Cat": -1
  },
  {
    "Compound": "CN1CCC[C@H]1COC(=O)Nc1ccc(F)cc1-c1ccc(F)c(Cl)c1 [Example 211]",
    "Cat": -1
  },
  {
    "Compound": "CN1CCCC1CCOC(=O)Nc1ccc(F)cc1-c1ccc(O)c(Cl)c1 (centres unmarked) [Example 58]",
    "Cat": -1
  },
  {
    "Compound": "CN1CCCC1CCOC(=O)Nc1ccccc1-c1cc(Cl)ccc1F (centres unmarked) [Example 186]",
    "Cat": 1
  },
  {
    "Compound": "CN1CCCC1CCOC(=O)Nc1ccc(Cl)cc1-c1ccc(F)cc1 (centres unmarked) [Example 68]",
    "Cat": -1
  },
  {
    "Compound": "CN1CCCC1CCOC(=O)Nc1ccc(Cl)cc1-c1ccc(F)c(Cl)c1 (centres unmarked) [Example 73]",
    "Cat": -1
  },
  {
    "Compound": "COc1ccc(NC(=O)OC[C@@H]2CCCN2C)c(-c2cccc(Cl)c2)c1 [Example 224]",
    "Cat": -1
  }
]
